Origin of the recorded values: paper PMC11173529

Can you tell me inhibition at 10 µM for the items I'm about to list?
biological target: NaV1.7 (Homo sapiens, UniProt Q15858); construct: expressed in transfected cells; host or cells: HEK293; assay: Tl+-flux selectivity panel in HEK-293 cells: NaV1.7; format: cell-based; settings: HEK293, 10 µM test compound, relative to control TC-N 1752, read-out: Percent Inhibition ± SEM
Sequence (Q15858 whole entry): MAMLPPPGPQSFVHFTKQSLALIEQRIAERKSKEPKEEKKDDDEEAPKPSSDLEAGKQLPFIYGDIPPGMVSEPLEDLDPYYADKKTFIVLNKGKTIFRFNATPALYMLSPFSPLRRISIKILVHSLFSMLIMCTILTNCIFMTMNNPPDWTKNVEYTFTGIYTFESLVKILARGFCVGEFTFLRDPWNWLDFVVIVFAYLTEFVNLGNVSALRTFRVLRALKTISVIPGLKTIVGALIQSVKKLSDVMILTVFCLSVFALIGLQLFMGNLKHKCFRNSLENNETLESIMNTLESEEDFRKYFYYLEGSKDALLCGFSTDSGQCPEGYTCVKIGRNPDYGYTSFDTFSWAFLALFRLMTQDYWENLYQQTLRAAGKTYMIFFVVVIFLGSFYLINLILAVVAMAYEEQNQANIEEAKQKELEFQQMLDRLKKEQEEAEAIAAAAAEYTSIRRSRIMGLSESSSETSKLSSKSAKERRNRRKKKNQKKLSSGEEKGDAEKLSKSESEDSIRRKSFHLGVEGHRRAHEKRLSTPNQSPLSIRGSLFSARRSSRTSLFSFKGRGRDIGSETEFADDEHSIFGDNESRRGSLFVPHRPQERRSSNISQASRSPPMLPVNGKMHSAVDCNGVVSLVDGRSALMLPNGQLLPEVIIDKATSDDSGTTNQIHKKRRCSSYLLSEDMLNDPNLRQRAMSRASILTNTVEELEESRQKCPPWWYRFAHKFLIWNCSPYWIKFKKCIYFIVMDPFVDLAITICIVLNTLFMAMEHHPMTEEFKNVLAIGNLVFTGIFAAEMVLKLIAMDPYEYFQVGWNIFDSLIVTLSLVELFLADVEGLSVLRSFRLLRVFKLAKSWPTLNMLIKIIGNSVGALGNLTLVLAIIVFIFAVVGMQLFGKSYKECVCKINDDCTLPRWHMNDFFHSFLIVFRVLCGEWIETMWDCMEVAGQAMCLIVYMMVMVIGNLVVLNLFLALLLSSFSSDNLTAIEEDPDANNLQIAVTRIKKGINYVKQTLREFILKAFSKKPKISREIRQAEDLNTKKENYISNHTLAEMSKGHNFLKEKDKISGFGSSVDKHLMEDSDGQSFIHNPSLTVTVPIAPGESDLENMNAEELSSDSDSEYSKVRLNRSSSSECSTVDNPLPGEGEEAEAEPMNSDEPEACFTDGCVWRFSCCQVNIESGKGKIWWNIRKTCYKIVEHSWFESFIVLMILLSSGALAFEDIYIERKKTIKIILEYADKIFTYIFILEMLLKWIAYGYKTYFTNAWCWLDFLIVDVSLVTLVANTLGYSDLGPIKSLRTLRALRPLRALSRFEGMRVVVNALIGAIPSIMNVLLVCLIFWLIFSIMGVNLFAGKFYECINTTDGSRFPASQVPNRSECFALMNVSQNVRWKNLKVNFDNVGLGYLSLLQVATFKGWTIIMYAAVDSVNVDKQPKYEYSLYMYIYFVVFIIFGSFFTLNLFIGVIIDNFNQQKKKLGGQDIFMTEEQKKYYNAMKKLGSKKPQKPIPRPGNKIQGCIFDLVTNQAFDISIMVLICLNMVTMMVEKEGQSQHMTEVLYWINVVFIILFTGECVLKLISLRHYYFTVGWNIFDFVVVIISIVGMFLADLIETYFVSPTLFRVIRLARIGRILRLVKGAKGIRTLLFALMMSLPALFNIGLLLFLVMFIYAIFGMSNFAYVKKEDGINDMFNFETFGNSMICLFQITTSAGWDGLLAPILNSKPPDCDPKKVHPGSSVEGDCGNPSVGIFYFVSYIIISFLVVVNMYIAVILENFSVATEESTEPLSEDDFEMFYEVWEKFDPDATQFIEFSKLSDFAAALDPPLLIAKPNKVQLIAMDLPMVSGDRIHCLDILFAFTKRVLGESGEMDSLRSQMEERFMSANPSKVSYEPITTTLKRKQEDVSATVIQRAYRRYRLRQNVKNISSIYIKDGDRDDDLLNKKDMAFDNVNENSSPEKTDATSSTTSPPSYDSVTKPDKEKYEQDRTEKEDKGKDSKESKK
Provide the measurement as a number trailed by its unit.

Give the reported inhibition at 10 µM for CN(Cc1cccc(F)c1)c1nc2c(c(=O)n(Cc3ccccc3)c(=O)n2C)n1C [Analog 48] (system: NaV1.7 (Homo sapiens, UniProt Q15858)).
39%

Give the reported inhibition at 10 µM for COc1cccc(Cn2c(=O)c3c(nc(N(C)Cc4ccccc4)n3C)n(C)c2=O)c1 [Analog 32] (system: NaV1.7 (Homo sapiens, UniProt Q15858)).
41%

Give the reported inhibition at 10 µM for CCCCN(Cc1ccccc1)c1nc2c(c(=O)n(Cc3ccccc3)c(=O)n2C)n1C [Analog 70] (system: NaV1.7 (Homo sapiens, UniProt Q15858)).
33%

Give the reported inhibition at 10 µM for Cn1c(N(Cc2ccccc2)CC2CC2)nc2c1c(=O)n(Cc1ccccc1)c(=O)n2C [Analog 71] (system: NaV1.7 (Homo sapiens, UniProt Q15858)).
29%

---

Can you tell me inhibition at 10 µM for the items I'm about to list?
biological target: KV2.1 (Homo sapiens); construct: expressed in transfected cells; host or cells: HEK293; experiment: Tl+-flux selectivity panel in HEK-293 cells: KV2.1; format: cell-based; conditions: HEK293, 10 µM test compound, relative to control guangxitoxin 1E, read-out: Percent Inhibition ± SEM
Please reply with the bare figure in % and do not write the unit itself.

inhibition at 10 µM for Cn1c(N(Cc2ccccc2)CC2CC2)nc2c1c(=O)n(Cc1ccccc1)c(=O)n2C ?
33

inhibition at 10 µM for CN(Cc1cccc(F)c1)c1nc2c(c(=O)n(Cc3ccccc3)c(=O)n2C)n1C ?
51

inhibition at 10 µM for CCCCN(Cc1ccccc1)c1nc2c(c(=O)n(Cc3ccccc3)c(=O)n2C)n1C ?
35

inhibition at 10 µM for COc1cccc(Cn2c(=O)c3c(nc(N(C)Cc4ccccc4)n3C)n(C)c2=O)c1 ?
51

---

molecular target: CaV3.2 (Homo sapiens); construct: expressed in transfected cells; host or cells: HEK293; test: Tl+-flux selectivity panel in HEK-293 cells: CaV3.2; type: cell-based; conditions: HEK293, 10 µM test compound, relative to control bepridil, read-out: Percent Inhibition ± SEM
Sequence (O95180 whole entry): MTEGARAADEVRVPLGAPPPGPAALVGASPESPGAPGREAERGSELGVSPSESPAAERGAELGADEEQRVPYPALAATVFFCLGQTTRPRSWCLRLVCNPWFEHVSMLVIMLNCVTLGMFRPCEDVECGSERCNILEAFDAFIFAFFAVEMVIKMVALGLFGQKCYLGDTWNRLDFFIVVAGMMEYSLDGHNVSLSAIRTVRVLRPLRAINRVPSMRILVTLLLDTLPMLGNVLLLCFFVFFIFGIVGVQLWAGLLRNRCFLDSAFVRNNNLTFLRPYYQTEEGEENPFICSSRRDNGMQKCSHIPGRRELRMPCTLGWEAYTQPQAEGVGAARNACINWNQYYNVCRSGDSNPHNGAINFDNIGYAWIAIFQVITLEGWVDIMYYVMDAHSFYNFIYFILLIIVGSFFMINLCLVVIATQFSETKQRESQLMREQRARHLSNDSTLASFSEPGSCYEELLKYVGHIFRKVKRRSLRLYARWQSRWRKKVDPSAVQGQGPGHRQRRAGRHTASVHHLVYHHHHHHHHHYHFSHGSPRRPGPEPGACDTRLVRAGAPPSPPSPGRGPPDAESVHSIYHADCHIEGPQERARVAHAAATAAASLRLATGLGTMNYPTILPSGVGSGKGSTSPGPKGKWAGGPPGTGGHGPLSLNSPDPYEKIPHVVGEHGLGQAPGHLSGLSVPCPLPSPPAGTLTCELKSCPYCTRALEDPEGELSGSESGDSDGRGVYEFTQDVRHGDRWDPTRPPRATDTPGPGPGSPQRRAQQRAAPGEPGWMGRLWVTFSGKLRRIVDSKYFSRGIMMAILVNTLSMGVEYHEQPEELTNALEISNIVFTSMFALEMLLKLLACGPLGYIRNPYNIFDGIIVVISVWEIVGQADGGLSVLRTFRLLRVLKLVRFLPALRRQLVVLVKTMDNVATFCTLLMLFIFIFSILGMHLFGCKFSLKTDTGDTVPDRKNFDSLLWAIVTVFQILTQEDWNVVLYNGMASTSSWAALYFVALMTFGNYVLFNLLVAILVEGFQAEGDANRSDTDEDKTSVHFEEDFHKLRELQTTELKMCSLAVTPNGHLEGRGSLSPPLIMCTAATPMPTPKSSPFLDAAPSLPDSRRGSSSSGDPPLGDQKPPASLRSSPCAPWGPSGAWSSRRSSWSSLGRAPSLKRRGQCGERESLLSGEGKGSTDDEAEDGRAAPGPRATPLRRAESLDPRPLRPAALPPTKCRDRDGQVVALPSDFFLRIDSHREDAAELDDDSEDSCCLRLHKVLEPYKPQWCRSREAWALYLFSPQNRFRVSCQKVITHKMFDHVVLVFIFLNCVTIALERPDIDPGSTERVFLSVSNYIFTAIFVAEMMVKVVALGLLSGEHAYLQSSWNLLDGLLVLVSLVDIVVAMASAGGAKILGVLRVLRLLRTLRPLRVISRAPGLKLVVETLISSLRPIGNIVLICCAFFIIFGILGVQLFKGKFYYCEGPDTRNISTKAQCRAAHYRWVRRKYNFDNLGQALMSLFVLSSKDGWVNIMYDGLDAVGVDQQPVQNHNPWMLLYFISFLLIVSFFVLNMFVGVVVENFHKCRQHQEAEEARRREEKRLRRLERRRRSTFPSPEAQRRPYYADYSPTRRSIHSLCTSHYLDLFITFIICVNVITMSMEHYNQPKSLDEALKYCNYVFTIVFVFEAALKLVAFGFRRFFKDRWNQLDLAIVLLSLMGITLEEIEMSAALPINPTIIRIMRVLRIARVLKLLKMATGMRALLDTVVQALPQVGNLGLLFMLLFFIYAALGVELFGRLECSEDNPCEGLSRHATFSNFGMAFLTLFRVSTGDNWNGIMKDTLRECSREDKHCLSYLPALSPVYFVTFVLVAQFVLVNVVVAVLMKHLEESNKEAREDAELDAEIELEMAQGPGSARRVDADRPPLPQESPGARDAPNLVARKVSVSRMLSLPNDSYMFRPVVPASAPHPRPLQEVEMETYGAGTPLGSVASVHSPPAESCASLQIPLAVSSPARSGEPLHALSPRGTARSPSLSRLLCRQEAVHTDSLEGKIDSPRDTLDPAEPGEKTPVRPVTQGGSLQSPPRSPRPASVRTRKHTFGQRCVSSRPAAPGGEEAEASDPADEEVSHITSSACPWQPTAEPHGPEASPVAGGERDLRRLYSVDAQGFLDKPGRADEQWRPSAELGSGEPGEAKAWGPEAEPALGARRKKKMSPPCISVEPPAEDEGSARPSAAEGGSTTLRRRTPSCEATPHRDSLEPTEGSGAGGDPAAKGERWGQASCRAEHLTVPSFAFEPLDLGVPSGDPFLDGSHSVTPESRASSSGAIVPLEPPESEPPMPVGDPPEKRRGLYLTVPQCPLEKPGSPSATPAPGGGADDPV
Can you tell me inhibition at 10 µM for the items I'm about to list?
Please reply with the bare figure in % and do not write the unit itself.

inhibition at 10 µM for CCCCN(Cc1ccccc1)c1nc2c(c(=O)n(Cc3ccccc3)c(=O)n2C)n1C [Analog 70] ?
16

inhibition at 10 µM for CN(Cc1cccc(F)c1)c1nc2c(c(=O)n(Cc3ccccc3)c(=O)n2C)n1C [Analog 48] ?
17

inhibition at 10 µM for Cn1c(N(Cc2ccccc2)CC2CC2)nc2c1c(=O)n(Cc1ccccc1)c(=O)n2C [Analog 71] ?
24

inhibition at 10 µM for COc1cccc(Cn2c(=O)c3c(nc(N(C)Cc4ccccc4)n3C)n(C)c2=O)c1 [Analog 32] ?
18

---

molecular target: KV7.2 (Homo sapiens, UniProt O43526); construct: expressed in transfected cells; host or cells: HEK293; assay: Tl+-flux selectivity panel in HEK-293 cells: KV7.2; assay type: cell-based; details: HEK293, 10 µM test compound, relative to control XE991, read-out: Percent Inhibition ± SEM
assay-endpoint: inhibition at 10 µM (%)
Please reply with the bare figure in % and do not write the unit itself.

inhibition at 10 µM for Cn1c(N(Cc2ccccc2)CC2CC2)nc2c1c(=O)n(Cc1ccccc1)c(=O)n2C ?
14

inhibition at 10 µM for COc1cccc(Cn2c(=O)c3c(nc(N(C)Cc4ccccc4)n3C)n(C)c2=O)c1 ?
16

inhibition at 10 µM for CCCCN(Cc1ccccc1)c1nc2c(c(=O)n(Cc3ccccc3)c(=O)n2C)n1C ?
19

inhibition at 10 µM for CN(Cc1cccc(F)c1)c1nc2c(c(=O)n(Cc3ccccc3)c(=O)n2C)n1C ?
15

---

Can you tell me IC50 for the items I'm about to list?
Target: WT hSLACK (Homo sapiens)
Construct: host or cells: CHO-K1
Assay: Whole-cell automated patch-clamp (APC) in CHO cells stably expressing WT hSLACK
Type: cell-based
Settings: whole-cell APC, CHO cells stably expressing WT hSLACK, averages n ≥ 3; read-out: SLACK IC50
Procedure: All new analogs were tested in our APC assay using CHO cells stably expressing WT SLACK using a concentration-response format with concentrations ranging from 0.125 to 30 μM in half-log steps and a minimum of three cells (replicates) per concentration series. […] Still, there were some notable results. For example, substitution at the 4-position was largely unfavorable regardless of the nature of the substituent (21, 24, 27, 30, and 33) apart from the 4-fluoro analog 18. […]

IC50 for CN(Cc1ccncc1)c1nc2c(c(=O)n(Cc3ccccc3)c(=O)n2C)n1C ?
> 10 µM

IC50 for CCn1c(N(C)Cc2ccccc2)nc2c1c(=O)n(Cc1ccccc1)c(=O)n2C ?
> 10 µM

IC50 for CN(Cc1cccnc1)c1nc2c(c(=O)n(Cc3ccccc3)c(=O)n2C)n1C ?
> 10 µM

---

target: WT hSLACK (Homo sapiens); construct: host or cells: CHO-K1; assay: Whole-cell automated patch-clamp (APC) in CHO cells stably expressing WT hSLACK; format: cell-based; settings: whole-cell APC, CHO cells stably expressing WT hSLACK, averages n ≥ 3; read-out: SLACK IC50
Can you tell me IC50 for the items I'm about to list?
Please reply with the bare figure in nM and do not write the unit itself.

IC50 for CN(Cc1ccc(C(F)(F)F)cc1)c1nc2c(c(=O)n(Cc3ccccc3)c(=O)n2C)n1C [Analog 58] ?
1900

IC50 for CN(Cc1ccccc1C(F)(F)F)c1nc2c(c(=O)n(Cc3ccccc3)c(=O)n2C)n1C [Analog 56] ?
1900

IC50 for COc1ccccc1Cn1c(=O)c2c(nc(N(C)Cc3ccccc3)n2C)n(C)c1=O [Analog 31] ?
1300

IC50 for CN(Cc1ccccc1)c1nc2c(c(=O)n(Cc3ccccc3C#N)c(=O)n2C)n1C [Analog 28] ?
2500

IC50 for COc1cccc(CN(C)c2nc3c(c(=O)n(Cc4ccccc4)c(=O)n3C)n2C)c1 [Analog 60] ?
2700

IC50 for CCCCN(Cc1cccc(F)c1)c1nc2c(c(=O)n(Cc3cccc(OC)c3)c(=O)n2C)n1C [Analog 78] ?
1200

IC50 for CCCCN(Cc1ccc(F)cc1)c1nc2c(c(=O)n(Cc3cccc(OC)c3)c(=O)n2C)n1C [Analog 80] ?
700

IC50 for CN(Cc1cccc(F)c1)c1nc2c(c(=O)n(Cc3ccccc3)c(=O)n2C)n1C [Analog 48] ?
890

IC50 for CN(Cc1ccccc1)c1nc2c(c(=O)n(Cc3cccc(C(F)(F)F)c3)c(=O)n2C)n1C [Analog 26] ?
4200

IC50 for CN(Cc1ccccc1)c1nc2c(c(=O)n(Cc3cccc(Cl)c3)c(=O)n2C)n1C [Analog 20] ?
1900
